So I've got a bunch of molecules here, and I need their AC1.4 values.
# System: Bovine cardiac myofibrils
# experiment_summary: In vitro model of dose-dependent myofibril ATPase modulation (AC1.4, pyruvate kinase/lactate dehydrogenase-coupled ATPase assay at pCa25)
# Type: biochemical
# setup_conditions: concentration at which ATPase activity was 1.4-fold higher than the bottom of the dose curve, mean of a minimum of two independent tests
One number for each entry, in µM.

INSERT INTO measurements (mol, quantity_unit, recorded_number) VALUES
  ('N#CC1CN(S(=O)(=O)N2CCC[C@H](C(=O)N3CCC[C@@H]3C(=O)NCc3ccccc3)C2)C1', 'µM', 7.61),
  ('COc1ccc(CNC(=O)[C@H]2CCCN2C(=O)[C@H]2CCCN(S(=O)(=O)N3CC(C#N)C3)C2)c(C)c1', 'µM', 3.8655),
  ('O=C(NCc1ccc(C(F)(F)F)cc1)[C@H]1CCCN1C(=O)[C@H]1CCCN(S(=O)(=O)N2CC[C@H](C(F)(F)F)C2)C1', 'µM', 1.295),
  ('Cc1cncc(C(=O)N2[C@@H](C(=O)N[C@@H](c3cc(F)c(C(F)(F)F)cc3F)C3CC3)C[C@H]3C[C@H]32)c1', 'µM', 9.447),
  ('N#CC1CN(S(=O)(=O)N2CCC[C@H](C(=O)N3CCC[C@@H]3C(=O)NCc3ccc(F)cc3)C2)C1', 'µM', 1.7085),
  ('O=C(N[C@@H](c1cc(F)c(Cl)cc1F)C1COC1)[C@H]1C[C@H]2C[C@H]2N1C(=O)c1ccnc(C(F)(F)F)n1', 'µM', 2.346);

Here is another molecule to look at.
Recorded AC1.4 of "N#CC1CN(S(=O)(=O)N2CCC[C@H](C(=O)N3CCC[C@@H]3C(=O)NCc3ncc(C(F)(F)F)cc3F)C2)C1" , please. 2.441

###

# Test system: Bovine cardiac myofibrils
# experiment_summary: In vitro model of dose-dependent myofibril ATPase modulation (AC1.4, pyruvate kinase/lactate dehydrogenase-coupled ATPase assay at pCa25)
# Format: biochemical
# setup_conditions: concentration at which ATPase activity was 1.4-fold higher than the bottom of the dose curve, mean of a minimum of two independent tests
Please respond with reported log10(AC1.4) for every item in the list.
A value of 2 here means AC1.4 of 100 in µM, since values are log10.

Examples from the recorded data:
INSERT INTO assay_data (molecule, recorded_number) VALUES
  ('O=C(N[C@@H](c1ccc(C(F)(F)F)cc1F)C1CC1)[C@H]1C[C@H]2C[C@H]2N1C(=O)c1cccc(S(=O)(=O)CCO)c1', -0.23),
  ('CN(C)S(=O)(=O)c1cccc(C(=O)N2CCC[C@@H]2C(=O)N[C@H](CO)c2ccc(C(F)(F)F)cc2)c1', 0.70),
  ('Cc1cc(C(=O)N2[C@@H](C(=O)N[C@@H](c3ccc(C(F)(F)F)cc3F)C3CC3)C[C@H]3C[C@H]32)c(NC2CCC2)cn1', -0.29),
  ('CS(=O)(=O)c1cc(C(=O)N2C[C@@H](F)C[C@@H]2C(=O)N[C@@H](c2cc(F)c(Cl)cc2F)C2CC2)ccn1', 0.35),
  ('CC(=O)N1CC(F)(c2cccc(C(=O)N3CCC[C@@H]3C(=O)N[C@@H](c3ccc(C(F)(F)F)cc3F)C3CC3)c2)C1', 0.97),
  ('CS(=O)(=O)c1cccc(C(=O)N2CCOC[C@@H]2C(=O)N[C@@H](c2ccc(C(F)(F)F)cc2F)C2CC2)c1', 0.45),
  ('N#CC1CN(S(=O)(=O)c2cccc(C(=O)N3CCC[C@@H]3C(=O)N[C@@H](CO)c3ccc(Cl)c(F)c3)c2)C1', -0.79),
  ('O=C(NCc1ccc(C(F)(F)F)cc1)[C@H]1CCCN1C(=O)[C@H]1CCCN(S(=O)(=O)N2CC(Cc3ccc(Cl)cc3)C2)C1', 0.75),
  ('CCS(=O)(=O)c1cccc(C(=O)N2CCC[C@@H]2C(=O)N[C@@H](c2ccc(C(F)(F)F)cc2F)C2CC2)c1', -0.34),
  ('CC(O)(c1cccc(C(=O)N2CCCC[C@@H]2C(=O)N[C@@H](c2ccc(C(F)(F)F)cc2F)C2CC2)c1)C(F)(F)F (some centres unmarked)', -0.35);

// for each molecule below, give its log10(AC1.4)
1. Cc1ccc(C)c(CNC(=O)[C@H]2CCCN2C(=O)[C@H]2CCCN(S(=O)(=O)N3CC(C#N)C3)C2)c1
2. NC(=O)C1(c2cccc(C(=O)N3CCC[C@@H]3C(=O)N[C@@H](c3ccc(C(F)(F)F)cc3F)C3CC3)c2)CC1
3. O=C(N[C@@H](c1ccc(C(F)(F)F)cc1F)C1CC1)[C@H]1C[C@H]2C[C@H]2N1C(=O)c1cc(C(F)(F)F)ccn1
4. CS(=O)(=O)c1cccc(C(=O)N2[C@@H](C(=O)N[C@@H](c3ccc(C(F)(F)F)cc3)C3COC3)C[C@H]3C[C@H]32)c1
5. O=C(N[C@@H](c1ccc(C(F)(F)F)cc1F)C1CC1)[C@H]1CCCN1C(=O)c1cccc(C2(F)CN(S(=O)(=O)C3CC3)C2)c1
6. CS(=O)(=O)c1cc(C(=O)N2CCC[C@@H]2C(=O)NC(c2ccc(C(F)(F)F)cc2F)C2CC2)ccn1 (some centres unmarked)

1: 0.90; 2: 0.41; 3: 0.51; 4: 0.08; 5: -0.23; 6: 0.89

###

# Tested on: Bovine cardiac myofibrils
# experiment_summary: In vitro model of dose-dependent myofibril ATPase modulation (AC1.4, pyruvate kinase/lactate dehydrogenase-coupled ATPase assay at pCa25)
# Format: biochemical
# setup_conditions: concentration at which ATPase activity was 1.4-fold higher than the bottom of the dose curve, mean of a minimum of two independent tests
# Description: In vitro Model of Dose-Dependent Myofibril ATPase Modulation: Dose responses were measured using a calcium-buffered, pyruvate kinase and lactate dehydrogenase-coupled ATPase assay containing the following reagents (concentrations expressed are final assay concentrations): Potassium PIPES (12 mM), MgCl2 (2 mM), ATP (1 mM), DTT (1 mM), BSA (0.1 mg/mi), NADH (0.5 mM), PEP (1.5 mM), pyruvate kinase (4 U/ml), lactate dehydrogenase (8 U/ml), and antifoam (90 ppm). […]
value_kind: AC1.4

// below: answered compounds
INSERT INTO assay_data (compound, value_kind, result) VALUES
  ('N#CC1CN(S(=O)(=O)c2cccc(C(=O)N3C[C@H](O)C[C@@H]3C(=O)NCc3ccc(C(F)(F)F)cc3)c2)C1', 'AC1.4', '0.2062 µM'),
  ('CCNc1ccc(C)cc1C(=O)N1C[C@@H](O)C[C@@H]1C(=O)N[C@@H](c1cc(F)c(Cl)cc1F)C1COC1', 'AC1.4', '0.1732 µM'),
  ('CS(=O)(=O)c1ccc(N)c(C(=O)N2[C@@H](C(=O)N[C@@H](c3ccc(C(F)(F)F)cc3F)C3CC3)C[C@H]3C[C@H]32)c1', 'AC1.4', '0.7101 µM');

// batch mode: one AC1.4 value per listed entry
1. Cc1ccnc(C(=O)N2[C@@H](C(=O)N[C@@H](c3cc(F)c(Cl)cc3F)C3COC3)C[C@H]3C[C@H]32)c1
2. O=C(NCc1ccc(C(F)(F)F)cc1)[C@H]1CCCN1C(=O)[C@H]1CCCN(S(=O)(=O)N2CC(n3ccnc3)C2)C1
3. CN1CC(C(NC(=O)[C@H]2C[C@H]3C[C@H]3N2C(=O)c2cccc(S(C)(=O)=O)c2)c2ccc(C(F)(F)F)cc2F)CC1=O (stereo partly drawn) [Example 575]

1. 3.6113 µM
2. 3.025 µM
3. 3.245 µM

###

# Test system: Bovine cardiac myofibrils
# experiment_summary: In vitro model of dose-dependent myofibril ATPase modulation (AC1.4, pyruvate kinase/lactate dehydrogenase-coupled ATPase assay at pCa25)
# Type: biochemical
# setup_conditions: concentration at which ATPase activity was 1.4-fold higher than the bottom of the dose curve, mean of a minimum of two independent tests
# Method: In vitro Model of Dose-Dependent Myofibril ATPase Modulation: Dose responses were measured using a calcium-buffered, pyruvate kinase and lactate dehydrogenase-coupled ATPase assay containing the following reagents (concentrations expressed are final assay concentrations): Potassium PIPES (12 mM), MgCl2 (2 mM), ATP (1 mM), DTT (1 mM), BSA (0.1 mg/mi), NADH (0.5 mM), PEP (1.5 mM), pyruvate kinase (4 U/ml), lactate dehydrogenase (8 U/ml), and antifoam (90 ppm). […]
Classify as follows. Reported AC1.4 greater than or equal to 0.8 µM: true. Reported AC1.4 below: false.

INSERT INTO results (compound, class_name) VALUES
  ('N#CC1CN(S(=O)(=O)N2CCC[C@H](C(=O)N3CCC[C@@H]3C(=O)N[C@@H](c3ccc(C(F)(F)F)cc3)C(F)(F)F)C2)C1 [Example 198]', 'false'),
  ('N#CC1CN(S(=O)(=O)c2cccc(C(=O)N3CCC[C@@H]3C(=O)NCCn3ccc(C(F)(F)F)n3)c2)C1 [Example 689]', 'true'),
  ('N#CC1CN(S(=O)(=O)N2CCC[C@H](C(=O)N3C[C@@H](F)C[C@@H]3C(=O)NCc3cccc(C(F)(F)F)c3)C2)C1 [Example 427]', 'true');

Does AC1.4 meet or surpass 0.8 µM for C[C@@H](NC(=O)[C@H]1CCCN1C(=O)[C@H]1CCCN(S(=O)(=O)N2CC(C#N)C2)C1)c1cccc(C(F)(F)F)c1 [Example 465] ? true

Now consider O=C(NCc1ccc(C(F)(F)F)cc1F)[C@H]1CCCN1C(=O)[C@H]1CCCN(S(=O)(=O)N2CC(O)(C(F)F)C2)C1 [Example 296] and answer again. false

What about this compound? Cc1ccc(CNC(=O)[C@H]2CCCN2C(=O)[C@H]2CCCN(S(=O)(=O)N3CC(C#N)C3)C2)cc1 [Example 243] false

The measured values listed here are drawn from patent US11780826B2.
